# method: Circular dichroism secondary structure (Dichroweb), with POPC
# Type: physicochemical
# test_settings: 20 °C
No end group written: not given here.
Think of 60% as a floor: if Peptide-POPC, Helix stands on it or above, it is Fulfilled; beneath it, Not fulfilled.

Worked cases, answers included:
[
  {
    "substance": "GLLDDAKLLAKLAGW-AMIDE (GLLDDAKLLAKLAGW-NH2) [Peptide 7D12]",
    "assigned_class": "Not fulfilled"
  },
  {
    "substance": "H-GLLDAAKLLAKAAGW-NH2 [Peptide 24F1]",
    "assigned_class": "Not fulfilled"
  },
  {
    "substance": "H-GLADAAKLLLKAAGW-NH2 [Peptide 11D12]",
    "assigned_class": "Not fulfilled"
  },
  {
    "substance": "H-GLLDLLHLLLKAAGW-NH2 [Peptide K7H]",
    "assigned_class": "Fulfilled"
  },
  {
    "substance": "H-GLDDLLKALLKAAGW-NH2 [Peptide 4H9]",
    "assigned_class": "Fulfilled"
  }
]

# ---- query substance ----
Query string: Threshold query (Peptide-POPC, Helix >= 60%) on H-GLLDLPKALAKALGW-NH2 [Peptide 7G6]
Result string: Not fulfilled

----------
# method: Circular dichroism secondary structure (Dichroweb), with POPC
# Format: physicochemical
# test_settings: 95 °C
experimental_readout: Peptide-POPC, Strand (%)
Numbers only, in %.

[
  {
    "substance": "H-GLLDLLHLLLKAAGW-NH2 [Peptide K7H]",
    "Peptide-POPC, Strand / %": 3
  }
]

Would you mind listing Peptide-POPC, Strand for each of the following substances?
1. H-GLADAAKLLLKAAGW-NH2 [Peptide 11D12]
2. H-GLDDLAKLLLKLAGW-NH2 [Peptide 25B2]
3. H-GLLDLPKALAKALGW-NH2 [Peptide 7G6]
4. H-GLLDAAKLLAKAAGW-NH2 [Peptide 24F1]

Result string:
1: 12; 2: 6; 3: 20; 4: 22

----------
# method: Circular dichroism secondary structure (Dichroweb), with POPG
# Format: physicochemical
# test_settings: 95 °C
No end group written: not given here.
experimental_readout: Peptide-POPG, Strand (%)
Give bare numbers, in %.

[
  {
    "substance": "H-GLDDLAKLLLKLAGW-NH2 [Peptide 25B2]",
    "unit_abbreviation": "%",
    "reported": 1
  },
  {
    "substance": "H-GLLDLLHLLLKAAGW-NH2 [Peptide K7H]",
    "unit_abbreviation": "%",
    "reported": 2
  },
  {
    "substance": "H-GLADLAKLLLKLLGW-NH2 [Peptide 7F3]",
    "unit_abbreviation": "%",
    "reported": 2
  },
  {
    "substance": "H-GLLDAAKLLAKAAGW-NH2 [Peptide 24F1]",
    "unit_abbreviation": "%",
    "reported": 2
  },
  {
    "substance": "GLLDDAKLLAKLAGW-AMIDE (GLLDDAKLLAKLAGW-NH2) [Peptide 7D12]",
    "unit_abbreviation": "%",
    "reported": 13
  },
  {
    "substance": "H-GLLDLLKLLLKLAGW-NH2 [Peptide 28H6]",
    "unit_abbreviation": "%",
    "reported": 7
  },
  {
    "substance": "H-GLLDLPKALAKALGW-NH2 [Peptide 7G6]",
    "unit_abbreviation": "%",
    "reported": 3
  },
  {
    "substance": "H-GLDDLLKALLKAAGW-NH2 [Peptide 4H9]",
    "unit_abbreviation": "%",
    "reported": 1
  }
]

Query string: Please supply the value of reported Peptide-POPG, Strand for the item H-GLADAAKLLLKAAGW-NH2 [Peptide 11D12]
Result string: 1

----------
Assign Peptide-POPC, Strand to each entry below.
# method: Circular dichroism secondary structure (Dichroweb), with POPC
# Assay type: physicochemical
# test_settings: 70 °C
Give bare numbers, in %.

Solved cases below.
[
  {
    "substance": "H-GLDDLAKLLLKLAGW-NH2 [Peptide 25B2]",
    "Peptide-POPC, Strand, %": 1
  },
  {
    "substance": "H-GLADLAKLLLKLLGW-NH2 [Peptide 7F3]",
    "Peptide-POPC, Strand, %": 3
  }
]

Moving on to another substance below.
Query string: Please supply the value of reported Peptide-POPC, Strand for the item H-GLLDLLHLLLKAAGW-NH2 [Peptide K7H]
Result string: 2

----------
# method: Circular dichroism secondary structure (Dichroweb), with POPG
# Type: physicochemical
# test_settings: 70 °C
No end group written: not given here.
Think of 80% as a floor: if Peptide-POPG, Helix stands on it or above, it is y; beneath it, n.

[
  {
    "substance": "H-GLDDLAKLLLKLAGW-NH2 [Peptide 25B2]",
    "assigned_class": "y"
  },
  {
    "substance": "H-GLADAAKLLLKAAGW-NH2 [Peptide 11D12]",
    "assigned_class": "y"
  },
  {
    "substance": "GLLDDAKLLAKLAGW-AMIDE (GLLDDAKLLAKLAGW-NH2) [Peptide 7D12]",
    "assigned_class": "n"
  },
  {
    "substance": "H-GLADLAKLLLKLLGW-NH2 [Peptide 7F3]",
    "assigned_class": "n"
  },
  {
    "substance": "H-GLLDLLKLLLKLAGW-NH2 [Peptide 28H6]",
    "assigned_class": "n"
  }
]

Query string: Threshold query (Peptide-POPG, Helix >= 80%) on H-GLLDLLHLLLKAAGW-NH2 [Peptide K7H]
Result string: n

Query string: Threshold query (Peptide-POPG, Helix >= 80%) on H-GLLDAAKLLAKAAGW-NH2 [Peptide 24F1]
Result string: n

Query string: Threshold query (Peptide-POPG, Helix >= 80%) on H-GLDDLLKALLKAAGW-NH2 [Peptide 4H9]
Result string: y

----------
# method: ANTS/DPX leakage assay, POPG
# Type: biochemical
# test_settings: P:L = 1:1000, pH 7 phosphate buffer
No end group written: not given here.
experimental_readout: ANTS/DPX release, POPG (%)
Answers are plain numbers, in %.

[
  {
    "substance": "H-GLLDLPKALAKALGW-NH2 [Peptide 7G6]",
    "reported": 105
  }
]

Would you mind listing ANTS/DPX release, POPG for each of the following substances?
1. GLLDDAKLLAKLAGW-AMIDE (GLLDDAKLLAKLAGW-NH2) [Peptide 7D12]
2. H-GLADLAKLLLKLLGW-NH2 [Peptide 7F3]

Result string:
1. 103
2. 106

Would you mind listing ANTS/DPX release, POPG for each of the following substances?
1. H-GLDDLAKLLLKLAGW-NH2 [Peptide 25B2]
2. H-GLLDLLKLLLKLAGW-NH2 [Peptide 28H6]
3. H-GLDDLLKALLKAAGW-NH2 [Peptide 4H9]
4. H-GLLDAAKLLAKAAGW-NH2 [Peptide 24F1]
5. H-GLADAAKLLLKAAGW-NH2 [Peptide 11D12]

Result string:
1. 99
2. 105
3. 43
4. 100
5. 101

----------
Assign Peptide-POPG, Helix to each entry below.
# method: Circular dichroism secondary structure (Dichroweb), with POPG
# Assay type: physicochemical
# test_settings: 20 °C
No end group written: not given here.
Give bare numbers, in %.

Solved cases below.
[
  {
    "substance": "H-GLLDLLKLLLKLAGW-NH2 [Peptide 28H6]",
    "reported": 18
  },
  {
    "substance": "H-GLLDLLHLLLKAAGW-NH2 [Peptide K7H]",
    "reported": 53
  },
  {
    "substance": "H-GLDDLAKLLLKLAGW-NH2 [Peptide 25B2]",
    "reported": 98
  }
]

Would you mind listing Peptide-POPG, Helix for each of the following substances?
1. H-GLLDAAKLLAKAAGW-NH2 [Peptide 24F1]
2. GLLDDAKLLAKLAGW-AMIDE (GLLDDAKLLAKLAGW-NH2) [Peptide 7D12]
3. H-GLLDLPKALAKALGW-NH2 [Peptide 7G6]
4. H-GLDDLLKALLKAAGW-NH2 [Peptide 4H9]

Result string:
1: 91; 2: 78; 3: 86; 4: 93

Would you mind listing Peptide-POPG, Helix for each of the following substances?
1. H-GLADLAKLLLKLLGW-NH2 [Peptide 7F3]
2. H-GLADAAKLLLKAAGW-NH2 [Peptide 11D12]

Result string:
[52, 96]

----------
# method: Circular dichroism secondary structure (Dichroweb), with POPC
# Type: physicochemical
# test_settings: 20 °C
Assign Peptide-POPC, Helix to each entry below.
Give bare numbers, in %.

Would you mind listing Peptide-POPC, Helix for each of the following substances?
1. H-GLDDLAKLLLKLAGW-NH2 [Peptide 25B2]
2. H-GLADLAKLLLKLLGW-NH2 [Peptide 7F3]

Result string:
80
82

Query string: Please supply the value of reported Peptide-POPC, Helix for the item H-GLLDLLKLLLKLAGW-NH2 [Peptide 28H6]
Result string: 58
